- System: HCT-116
- PROCEDURE_SUMMARY: cells
- MEASUREMENT_CONTEXT: Homo sapiens, HCT-116, 72 h
- Description: Antiproliferative activity against human HCT-116 cells after 72 hrs by MTT assay
READOUT: log10 IC50 (log10 of the value in µM)
// stored as log10 of IC50 expressed in µM

CCCC(=O)NNC(=O)c1csc2ncc(-c3ccc(C)cc3)n12: 1.54
O=C(NCCc1ccccc1)c1csc(NC(=S)Nc2ccc(Cl)cc2)n1: 1.47
CCOC(=O)c1csc2nc(CN3CCN(Cc4ccccc4)CC3)c(-c3ccc(OC)cc3)n12: 1.29
CCCC(=O)NNC(=O)c1csc2nc(CN3CCOCC3)c(-c3ccc(OC)cc3)n12: 1.84

Quick request: log10 IC50 for each listed item, please.
1. COc1ccc(NC(=S)Nc2nc(C(=O)NCCc3ccccc3)cs2)cc1
2. O=C(NCCCc1ccccc1)c1csc(NC(=S)Nc2ccc(Cl)cc2)n1
3. CC(=O)NNC(=O)c1csc2ncc(-c3ccc(Br)cc3)n12
4. COc1ccc(NC(=S)Nc2nc(C(=O)NCCCc3ccccc3)cs2)cc1
5. CCC(=O)NNC(=O)c1csc2ncc(-c3ccc(OC)cc3)n12

[0.91, 1.56, 0.78, 1.65, 1.81]
